- Test system: A-375
- procedure_details: Cytotoxicity against human A-375 cells assessed as reduction in cell vaibility measured at 24 hrs in absence of BNPP by MTT assay
- Format: functional, cell-based
- condition_label: A-375, 24 h
readout_name: IC50

## Task Find the recorded IC50 belonging to "O=C(CCCCCCCCC[P+](c1ccc(C(F)(F)F)cc1)(c1ccc(C(F)(F)F)cc1)c1ccc(C(F)(F)F)cc1)NC(COC(=O)CCCc1ccccc1)(COC(=O)CCCc1ccccc1)COC(=O)CCCc1ccccc1.[Br-]" and report it.
## Result 6.06 µM

###

- procedure_details: Cytotoxicity against HEK293T cells assessed as cell growth inhibition measured after 72 hrs by MTT assay
- Type: toxicity, cell-based, HEK-293T
- condition_label: human
readout_name: IC50 at 72 h

## Task What value of measured IC50 at 72 h is listed for "O=C(CCCc1ccccc1)NCC(CNC(=O)CCCc1ccccc1)(CNC(=O)CCCc1ccccc1)NC(=O)CCCCCCCCC[P+](c1ccc(C(F)(F)F)cc1)(c1ccc(C(F)(F)F)cc1)c1ccc(C(F)(F)F)cc1" ?
## Result > 20 µM

###

- procedure_details: Cytotoxicity against human HaCaT cells assessed as cell growth inhibition measured after 72 hrs by MTT assay
- Format: toxicity, cell-based
readout_name: IC50 at 72 h

## Task Given "O=C(CCCc1ccccc1)NCC(CNC(=O)CCCc1ccccc1)(CNC(=O)CCCc1ccccc1)NC(=O)CCCCCCCCC[P+](c1ccc(C(F)(F)F)cc1)(c1ccc(C(F)(F)F)cc1)c1ccc(C(F)(F)F)cc1" , state its recorded IC50 at 72 h.
## Result > 20 µM

###

- Tested on: A549
- procedure_details: Antiproliferative activity against human A549 cells assessed as inhibition of cell viability incubated for 72 hrs by MTT assay
- Format: functional, cell-based
- condition_label: A549, 72 h
readout_name: IC50 (µM)
Record the value in µM, omitting the unit from your answer.

## Task I'd like to know its IC50. The compound in question is "O=C(CC[P+](c1ccccc1)(c1ccccc1)c1ccccc1)NC(COC(=O)CCCc1ccccc1)(COC(=O)CCCc1ccccc1)COC(=O)CCCc1ccccc1"
## Result 1.01

## Task // lookup IC50 for "Cc1ccc([P+](CCCCCCCCCC(=O)NC(CNC(=O)CCCc2ccccc2)(CNC(=O)CCCc2ccccc2)CNC(=O)CCCc2ccccc2)(c2ccc(C)cc2)c2ccc(C)cc2)cc1"
## Result 0.73

## Task What does the data say about its IC50? Entry: "O=C(O)CCCc1ccccc1"
## Result 9750

## Task Field request: IC50 | item: "N#Cc1ccc([P+](CCCCCCCCCC(=O)NC(CNC(=O)CCCc2ccccc2)(CNC(=O)CCCc2ccccc2)CNC(=O)CCCc2ccccc2)(c2ccc(C#N)cc2)c2ccc(C#N)cc2)cc1"
## Result 4.06

## Task # IC50 lookup, item "O=C(CCCc1ccccc1)NCC(CNC(=O)CCCc1ccccc1)(CNC(=O)CCCc1ccccc1)NC(=O)CCCC[P+](c1ccccc1)(c1ccccc1)c1ccccc1"
## Result 2.15

## Task Request the reported IC50 associated with "O=C(CCCCCCCCC[P+](c1ccc(C(F)(F)F)cc1)(c1ccc(C(F)(F)F)cc1)c1ccc(C(F)(F)F)cc1)NC(COC(=O)CCCc1ccccc1)(COC(=O)CCCc1ccccc1)COC(=O)CCCc1ccccc1.[Br-]"
## Result 4.72

## Task // query IC50 value for entry "O=C(CCC[P+](c1ccccc1)(c1ccccc1)c1ccccc1)NC(COC(=O)CCCc1ccccc1)(COC(=O)CCCc1ccccc1)COC(=O)CCCc1ccccc1"
## Result 0.65

## Task Given COc1cccc2c1C(=O)c1c(O)c3c(c(O)c1C2=O)C[C@@](O)(C(=O)CO)C[C@@H]3O[C@H]1C[C@H](N)[C@H](O)[C@H](C)O1 [DOXORUBICIN] , state its recorded IC50.
## Result 0.42

## Task For the compound "O=C(CCCc1ccccc1)NCC(CNC(=O)CCCc1ccccc1)(CNC(=O)CCCc1ccccc1)NC(=O)CC[P+](c1ccccc1)(c1ccccc1)c1ccccc1" , what IC50 is on record?
## Result 5.3

## Task Requested field: IC50. Item: "O=C(CCCC[P+](c1ccccc1)(c1ccccc1)c1ccccc1)NC(COC(=O)CCCc1ccccc1)(COC(=O)CCCc1ccccc1)COC(=O)CCCc1ccccc1"
## Result 1.03

## Task Reported IC50 for "O=C(CCCc1ccccc1)NCC(CNC(=O)CCCc1ccccc1)(CNC(=O)CCCc1ccccc1)NC(=O)CCCCCCCCC[P+](c1ccc(C(F)(F)F)cc1)(c1ccc(C(F)(F)F)cc1)c1ccc(C(F)(F)F)cc1" : what is it?
## Result 2.11

## Task What does the record list as IC50 for "O=C(CCCc1ccccc1)NCC(CNC(=O)CCCc1ccccc1)(CNC(=O)CCCc1ccccc1)NC(=O)CCC[P+](c1ccccc1)(c1ccccc1)c1ccccc1" ?
## Result 624

## Task Please look up its IC50: "O=C(CCCc1ccccc1)NCC(CNC(=O)CCCc1ccccc1)(CNC(=O)CCCc1ccccc1)NC(=O)CCCCC[P+](c1ccccc1)(c1ccccc1)c1ccccc1"
## Result 7.7

## Task If you can, please state the reported IC50 value of "COc1cccc([P+](CCCCCCCCCC(=O)NC(CNC(=O)CCCc2ccccc2)(CNC(=O)CCCc2ccccc2)CNC(=O)CCCc2ccccc2)(c2cccc(OC)c2)c2cccc(OC)c2)c1" .
## Result 0.97

## Task Can you share its IC50? I mean this compound: "O=C(CCCc1ccccc1)NCC(CNC(=O)CCCc1ccccc1)(CNC(=O)CCCc1ccccc1)NC(=O)CCCCCCCCC[P+](c1ccccc1)(c1ccccc1)c1ccccc1"
## Result 0.81

## Task Data request, read-out IC50, for "O=C(CCCc1ccccc1)NCC(CNC(=O)CCCc1ccccc1)(CNC(=O)CCCc1ccccc1)NC(=O)CCCCCCCCCCC[P+](c1ccccc1)(c1ccccc1)c1ccccc1"
## Result 0.57

## Task Look up IC50 for this compound: "CN(C)c1ccc([P+](CCCCCCCCCC(=O)O)(c2ccc(N(C)C)cc2)c2ccc(N(C)C)cc2)cc1"
## Result 1.87
